B1: HDV Ribozyme (parent)
chain: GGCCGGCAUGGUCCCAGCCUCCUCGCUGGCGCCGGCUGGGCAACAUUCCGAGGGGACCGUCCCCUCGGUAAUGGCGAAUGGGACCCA

Variants of: B1
Assay: self-cleavage, relative activity (ratio to wild type); higher = more cleavage; co-transcriptional
self-cleavage of 0.2 or higher: Condition met. Under 0.2: Condition not met.

Request: Decide: is the reported value of self-cleavage for C19U A45U equal to or greater than 0.2?
Result: Condition not met

Request: Say whether G39A G59A shows self-cleavage of 0.2 or more.
Result: Condition met

Request: Does the reported self-cleavage for U60C A78U fall at or above the 0.2 mark?
Result: Condition met

Request: Hello, I need to know if G39C C44G has measured self-cleavage not below 0.2. Thanks!
Result: Condition not met

Request: Entry C41G G80C : is its self-cleavage no less than 0.2?
Result: Condition not met

Request: Does the reported self-cleavage for U9C A83G fall at or above the 0.2 mark?
Result: Condition met

Request: Determine whether measured self-cleavage meets or exceeds 0.2 for G28U A43G
Result: Condition not met
